The entries below are paired with their reported OTUB2.
Molecular target: OTUB2 (OTUB2A) (Homo sapiens)
Construct: full length residues 1-234, E. coli BL21(DE3)-R3, His tag removed by TEV, construct 27312 Da
Sequence (Q96DC9 1-234): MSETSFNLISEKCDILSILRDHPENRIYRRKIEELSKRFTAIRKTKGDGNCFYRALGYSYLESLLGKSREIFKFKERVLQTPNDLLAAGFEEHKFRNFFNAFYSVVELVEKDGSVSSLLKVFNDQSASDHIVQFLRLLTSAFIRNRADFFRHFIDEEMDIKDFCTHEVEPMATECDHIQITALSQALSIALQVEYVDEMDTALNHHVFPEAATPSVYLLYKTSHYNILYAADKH
Parameters: Intact protein LC/MS covalent labelling, fragments in pools of five, 200 uM each, 4 °C
Conditions: 24 h, 4 °C, pool of five; 200 µM; covalent
Procedure: Incubations were performed at 200 μM for each compound and 2 μM of protein (10 μM for BSA) for 24 h at 4 °C with moderate shaking. […] Following incubation, we used intact protein [compound left out] chromatography/mass spectrometry (LC/MS) to identify the fragments and quantify their labeling (Figure 3A). […]
Simply state the number, no unit and no words.

// below: answered compounds
1. C=CC(=O)N1CCCc2ccccc21 [PCM-0102549]: 0
2. O=C(CCl)NC(=O)c1ccccc1 [PCM-0102414]: 0
3. CC1CCCC(C)N1C(=O)CCl (stereo not drawn) [PCM-0102616]: 0
4. NS(=O)(=O)c1ccccc1NC(=O)CCl [PCM-0102903]: 0.14
5. CC1CCN(C(=O)CCl)C2CCCCC12 (stereo not drawn) [PCM-0102831]: 0

Record summary for CCNC(=O)NC(=O)CCl [PCM-0102654] : reported OTUB2 = 0

Record summary for Cc1cc(NC(=O)CCl)no1 [PCM-0102500] : reported OTUB2 = 0.35

Record summary for C=CC(=O)N1CC(S(=O)(=O)CC)C1 [PCM-0102442] : reported OTUB2 = 0

Record summary for O=C(CCl)NNC(=O)CC1CCS(=O)(=O)C1 (stereo not drawn) [PCM-0102998] : reported OTUB2 = 0.69

Record summary for O=C(CCl)NNC(=O)c1cccs1 [PCM-0102426] : reported OTUB2 = 0.6

Record summary for C=CC(=O)NC1CC(C)(C)OC1(C)C (stereo not drawn) [PCM-0102562] : reported OTUB2 = 0

Record summary for O=C(CCl)N(CC(F)(F)F)c1ccc(Cl)cc1 [PCM-0102155] : reported OTUB2 = 0

Record summary for C=CC(=O)N1CCc2ccccc21 [PCM-0102732] : reported OTUB2 = 0

Record summary for C=CC(=O)NCC1(O)CCS(=O)(=O)CC1 [PCM-0102691] : reported OTUB2 = 0.2
